Test system: Ishikawa uterine cells
Experiment: Ishikawa cell alkaline phosphatase test procedure
Assay type: cell-based, human
Details: 1 uM compound + 1 nM E2, antagonist mode, 48 h
Property Name: Alkaline phosphatase activity, percent of response related to 1 nM 17β-estradiol (%)
// return numeric value only (unit: %, not printed)

q: What Alkaline phosphatase activity, percent of response related to 1 nM 17β-estradiol value was documented for this compound, C[C@]12CC[C@@H]3c4ccc(O)cc4[C@@H](O)[C@@H](Sc4ccc(Br)cc4)[C@H]3[C@@H]1CC[C@@H]2O ?
a: 98

q: What do you get for CC12CCC3c4ccc(O)cc4CC(Sc4ccc(-c5ccc(C=O)cc5)cc4)C3C1CCC2O (stereo not drawn) ?
a: 92

q: What do you get for C[C@]12CC[C@@H]3c4ccc(O)cc4[C@@H](O)[C@@H](Sc4ccc(O)cc4)[C@H]3[C@@H]1CC[C@@H]2O ?
a: 97

q: What do you get for COc1ccc2c(c1)CC(Sc1ccc(OCCN3CCCCC3)cc1)C1C2CCC2(C)C(O)CCC12 (stereo not drawn) ?
a: 69

q: What do you get for C[C@]12CC[C@@H]3c4ccc(O)cc4C(=O)[C@@H](Sc4ccc(Br)cc4)[C@H]3[C@@H]1CC[C@@H]2O ?
a: 109

q: What do you get for COc1ccc2c(c1)CC(Sc1ccc(OCCN3CCCCC3)cc1)C1C2CCC2(C)C(OC(C)=O)CCC12 (stereo not drawn) ?
a: 105

q: What do you get for COC(=O)C=Cc1ccc(S[C@@H]2Cc3cc(O)ccc3[C@H]3CC[C@]4(C)[C@@H](OC(C)=O)CC[C@H]4[C@@H]32)cc1 ?
a: 59

q: What do you get for C[C@]12CC[C@@H]3c4ccc(O)cc4C[C@@H](Sc4ccc(Br)cc4)[C@H]3[C@@H]1CC[C@@H]2O ?
a: 95

Others:
q: What Alkaline phosphatase activity, percent of response related to 1 nM 17β-estradiol value was documented for this compound, CCCCN(C)C(=O)CCCCCCCCCCS[C@H]1[C@@H]2[C@H](CC[C@]3(C)[C@@H](O)CC[C@@H]23)c2ccc(O)cc2[C@H]1O ?
a: 28

q: What do you get for C[C@]12CC[C@@H]3c4ccc(O)cc4C(=O)[C@@H](Sc4ccc(O)cc4)[C@H]3[C@@H]1CC[C@@H]2O ?
a: 87

q: What do you get for C[C@]12CC[C@@H]3c4ccc(O)cc4C[C@@H](Sc4ccc(C=CC(=O)O)cc4)[C@H]3[C@@H]1CC[C@@H]2O ?
a: 50

q: What do you get for CN(C)C(=O)/C=C/c1ccc(S[C@@H]2Cc3cc(O)ccc3[C@H]3CC[C@]4(C)[C@@H](O)CC[C@H]4[C@@H]32)cc1 ?
a: 57

====

Tested on: Ishikawa uterine cells
Assay: Ishikawa cell alkaline phosphatase test procedure
Type: cell-based, human
Details: Homo sapiens, Ishikawa; reference standards; read-out: ED50, estrogenic activity by the alkaline phosphatase method
Property Name: pEC50
pEC50 here is simply -log10 of the concentration when that concentration is written in mol/L.

q: What pEC50 value was documented for this compound, C[C@]12CC[C@@H]3c4ccc(O)cc4CC[C@H]3[C@@H]1CC[C@@H]2O [17β-estradiol, reference compound] ?
a: 10.52

q: What do you get for C[C@]12CC[C@@H]3c4ccc(O)cc4CC[C@H]3[C@@H]1CCC2=O [estrone, reference compound] ?
a: 9.44

q: What do you get for C[C@]12CC[C@@H]3c4ccc(O)cc4CC[C@H]3[C@@H]1C[C@@H](O)[C@@H]2O [estriol, reference compound] ?
a: 9.89

====

In this section, each of the compounds is paired with its reported Uterine wet weight.
Tested on: rat uterus
Test: Rat uterotrophic/antiuterotrophic test procedure
Format: in vivo
Details: 100 ug Cpd, daily ip, 4-day immature rat
Where a name gives a salt, the structure may show the parent alone.
// return numeric value only (unit: mg, not printed)

q: What Uterine wet weight value was documented for this compound, C[C@]12CC[C@@H]3c4ccc(O)cc4C(=O)[C@@H](Sc4ccc(Br)cc4)[C@H]3[C@@H]1CC[C@@H]2O [Example 6] ?
a: 97.7

q: What do you get for CC12CCC3c4ccc(O)cc4CC(Sc4ccc(-c5ccc(C=CC(=O)O)cc5)cc4)C3C1CCC2O (stereo not drawn) [Example 13, sodium salt] ?
a: 55.8

q: What do you get for C[C@]12CC[C@@H]3c4ccc(O)cc4C[C@@H](Sc4ccc(Br)cc4)[C@H]3[C@@H]1CC[C@@H]2O [Example 8] ?
a: 64.7

Switching to the query record.
q: What Uterine wet weight value was documented for this compound, CCCCN(C)C(=O)CCCCCCCCCCS[C@@H]1C(=O)c2cc(O)ccc2[C@H]2CC[C@]3(C)[C@@H](O)CC[C@H]3[C@H]12 [Example 16] ?
a: 72.5

====

Biological target: human estrogen receptor (Homo sapiens)
Construct: expressed in transfected cells; host or cells: Chinese Hamster ovary (CHO) cells; ribosome-free cytosol
Experiment: In vitro estrogen receptor binding test procedure ([3H]-17β-estradiol competition)
Conditions: read-out: Receptor IC50
Where a name gives a salt, the structure may show the parent alone.
In this section, each of the compounds is paired with its reported pIC50.
pIC50 here is simply -log10 of the concentration when that concentration is written in mol/L.

Some solved cases for reference:
q: Param readout= pIC50; system= human estrogen receptor (Homo sapiens); entry= CC12CCC3c4ccc(O)cc4CC(Sc4ccc(-c5ccc(C=CC(=O)O)cc5)cc4)C3C1CCC2O (stereo not shown) [Example 13, sodium salt] ; returns value.
a: 6.40

q: What do you get for C[C@]12CC[C@@H]3c4ccc(O)cc4C(=O)[C@@H](Sc4ccc(Br)cc4)[C@H]3[C@@H]1CC[C@@H]2O ?
a: 5.82

q: What do you get for C[C@]12CC[C@@H]3c4ccc(O)cc4C[C@@H](Sc4ccc(O)cc4)[C@H]3[C@@H]1CC[C@@H]2O ?
a: 6.52

Others:
q: Param readout= pIC50; system= human estrogen receptor (Homo sapiens); entry= C[C@]12CC[C@@H]3c4ccc(O)cc4C[C@@H](Sc4ccc(Br)cc4)[C@H]3[C@@H]1CC[C@@H]2O ; returns value.
a: 6.10

====

Target: human estrogen receptor (Homo sapiens, UniProt P03372)
Construct: expressed in transfected cells; host or cells: Chinese Hamster ovary (CHO) cells; ribosome-free cytosol
Sequence (P03372 1-595): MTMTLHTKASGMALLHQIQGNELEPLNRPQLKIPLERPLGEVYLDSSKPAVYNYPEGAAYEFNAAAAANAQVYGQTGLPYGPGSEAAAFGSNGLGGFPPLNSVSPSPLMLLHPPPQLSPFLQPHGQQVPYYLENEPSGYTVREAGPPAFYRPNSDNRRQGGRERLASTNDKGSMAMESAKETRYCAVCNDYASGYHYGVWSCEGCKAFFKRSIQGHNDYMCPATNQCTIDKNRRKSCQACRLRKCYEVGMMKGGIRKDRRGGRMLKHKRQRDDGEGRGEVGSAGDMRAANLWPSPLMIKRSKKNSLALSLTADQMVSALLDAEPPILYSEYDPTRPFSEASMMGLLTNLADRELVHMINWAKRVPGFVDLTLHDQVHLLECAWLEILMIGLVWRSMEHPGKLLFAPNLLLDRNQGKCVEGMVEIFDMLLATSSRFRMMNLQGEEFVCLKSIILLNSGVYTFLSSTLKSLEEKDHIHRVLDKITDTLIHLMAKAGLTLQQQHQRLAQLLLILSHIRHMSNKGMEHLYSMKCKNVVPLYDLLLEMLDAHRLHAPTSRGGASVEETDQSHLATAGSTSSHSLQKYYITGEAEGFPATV
Experiment: In vitro estrogen receptor binding test procedure ([3H]-17β-estradiol competition)
Property Name: IC50 (µM)
// return numeric value only (unit: µM, not printed)

Some solved cases for reference:
q: What IC50 value was documented for this compound, C[C@]12CC[C@@H]3c4ccc(O)cc4C[C@@H](Sc4ccc(C=CC(=O)O)cc4)[C@H]3[C@@H]1CC[C@@H]2O [Example 11] ?
a: 1.5

q: What do you get for C[C@]12CC[C@@H]3c4ccc(O)cc4[C@@H](O)[C@@H](Sc4ccc(Br)cc4)[C@H]3[C@@H]1CC[C@@H]2O [Example 7] ?
a: 0.8

q: What do you get for CCCCN(C)C(=O)CCCCCCCCCCS[C@@H]1C(=O)c2cc(O)ccc2[C@H]2CC[C@]3(C)[C@@H](O)CC[C@H]3[C@H]12 [Example 16] ?
a: 0.3

Others:
q: What IC50 value was documented for this compound, CCCCN(C)C(=O)CCCCCCCCCCS[C@@H]1Cc2cc(O)ccc2[C@H]2CC[C@]3(C)[C@@H](O)CC[C@H]3[C@@H]21 [Example 18] ?
a: 0.1

====

Biological target: human estrogen receptor (Homo sapiens)
Construct: expressed in transfected cells; host or cells: Chinese Hamster ovary (CHO) cells; ribosome-free cytosol
Assay: In vitro estrogen receptor binding test procedure ([3H]-17β-estradiol competition)
Conditions: read-out: Receptor IC50
Property Name: IC50
Give your result as the value with the unit written after it.

Some solved cases for reference:
q: What IC50 value was documented for this compound, CCCCN(C)C(=O)CCCCCCCCCCS[C@H]1[C@@H]2[C@H](CC[C@]3(C)[C@@H](O)CC[C@@H]23)c2ccc(O)cc2[C@H]1O ?
a: 0.4 µM

q: What do you get for C[C@]12CC[C@@H]3c4ccc(O)cc4[C@@H](O)[C@@H](Sc4ccc(O)cc4)[C@H]3[C@@H]1CC[C@@H]2O ?
a: 0.01 µM

q: What do you get for CC12CCC3c4ccc(O)cc4CC(Sc4ccc(-c5ccc(C=O)cc5)cc4)C3C1CCC2O (stereo not shown) ?
a: 0.3 µM

Switching to the query record.
q: What IC50 value was documented for this compound, C[C@]12CC[C@@H]3c4ccc(O)cc4C(=O)[C@@H](Sc4ccc(O)cc4)[C@H]3[C@@H]1CC[C@@H]2O ?
a: 2.5 µM
